System: NCI-H322M lung
Assay Protocol: NCI-60 one-dose screen, 48 h (100 = growth as untreated, 0 = no growth, -100 = all killed)
Condition Details: 10 µM unless noted
This is part of a sample that, as a whole, favours compounds with a hit. Of some 83,000 tested, about 20% had one in any assay. Activity calls are given as the source filed them. How the source made its calls: active means growth percent below 10; inactive means the rest.
Property Label: growth

[[record]]
molecule = "COc1nc2c(c(=O)n1C)CN(Cc1ccccc1)C=N2"
property_label = "growth"
endpoint_result = "128% (inactive)"

[[record]]
molecule = "O=c1cc(CSc2nnc(-c3ccc(F)cc3)o2)c2ccc3ccccc3c2o1"
property_label = "growth"
endpoint_result = "100% (inactive)"

[[record]]
molecule = "Cc1cc(C)nc(SC2=C(Nc3ccc(C)c(Cl)c3)C(=O)N(Cc3ccccc3)C2=O)n1"
property_label = "growth"
endpoint_result = "82% [30 µM] (inactive)"

[[record]]
molecule = "CCCCN(CCCC)CCCn1c(-c2ccccc2)ccc1-c1ccccc1"
property_label = "growth"
endpoint_result = "86.7% (inactive)"

[[record]]
molecule = "COc1cccc2c1C(=O)c1c(O)c3c(c(O)c1C2=O)C[C@](O)(C(=O)CO)C[C@H]3O[C@@H]1C[C@@H](NC(=O)CCCN(C)C2(c3ccc(F)cc3)CC3CCC2C3)[C@H](O)[C@@H](C)O1 (stereo partly specified)"
property_label = "growth"
endpoint_result = "49.1% (inactive)"

[[record]]
molecule = "COc1cc2c(cc1-c1c(C)noc1C)ncc1nc(C3CCCCC3)n([C@H](C)COC(F)F)c12"
property_label = "growth"
endpoint_result = "40.3% (inactive)"

[[record]]
molecule = "COc1cc2nc(N3CCCC3)nc(NCC3CCCCC3)c2cc1OC"
property_label = "growth"
endpoint_result = "50.1% (inactive)"

[[record]]
molecule = "COc1ccc(-c2cc(=O)c3c(OC)c4ccoc4cc3o2)cc1"
property_label = "growth"
endpoint_result = "77.8% (inactive)"

[[record]]
molecule = "CC(=O)c1cc2c(N)c(C(=O)Nc3ccccc3)sc2nc1C"
property_label = "growth"
endpoint_result = "50.8% (inactive)"

[[record]]
molecule = "COc1cc(-c2nn(-c3ccc(Br)cc3)cc2C(=O)O)ccc1O"
property_label = "growth"
endpoint_result = "95.3% (inactive)"

[[record]]
molecule = "Cn1cc(C(=O)c2nc(-c3c[nH]c4ccc(Br)cc34)no2)c2cc(F)ccc21"
property_label = "growth"
endpoint_result = "95.7% (inactive)"

[[record]]
molecule = "CC(C)(C)c1cc(/C=N\\NC(=O)/C=C/C=C/c2ccc3c(c2)OCO3)c(O)c(C(C)(C)C)c1"
property_label = "growth"
endpoint_result = "63.5% (inactive)"

[[record]]
molecule = "NC(=O)c1cc(Cl)ccc1NC(=O)/C=C/c1ccccc1"
property_label = "growth"
endpoint_result = "45.1% (inactive)"

[[record]]
molecule = "Cc1[nH]c(-c2cc(N)ccc2Cl)c2c1C(=O)CCCC2"
property_label = "growth"
endpoint_result = "40.8% (inactive)"

[[record]]
molecule = "Nc1n[nH]c2ccc([C@@H]3Nc4cc5c(cc4[C@H]4C6CCC(C6)[C@@H]34)C(=O)NC5)cc12 (stereo partly specified)"
property_label = "growth"
endpoint_result = "42.1% (inactive)"

[[record]]
molecule = "COc1ccc(CN2c3ccccc3Sc3ccccc32)c(C(F)(F)F)c1"
property_label = "growth"
endpoint_result = "49.1% (inactive)"

[[record]]
molecule = "N#Cc1nnn(-c2ccc(S(N)(=O)=O)cc2)c1NCC(=O)c1ccccc1"
property_label = "growth"
endpoint_result = "91.2% (inactive)"

[[record]]
molecule = "COc1ccc(S(=O)(=O)N2CCCCCC2)cc1NC(=O)c1[nH]c(C)c2c1CCCCC2=O"
property_label = "growth"
endpoint_result = "35.8% (inactive)"

[[record]]
molecule = "Cc1cc(N2CCOCC2)nc(N[C@@H]2CCC[C@H](Nc3ccnc4cc(Cl)ccc34)C2)n1"
property_label = "growth"
endpoint_result = "27.2% (inactive)"

[[record]]
molecule = "O=c1nc2oc3ccc4ccccc4c3cc-2s1"
property_label = "growth"
endpoint_result = "35% (inactive)"

[[record]]
molecule = "Cn1ccnc1C(=O)/C=C/c1ccccc1"
property_label = "growth"
endpoint_result = "10.4% (inactive)"


Data origin, for the record: PubChem BioAssay (NCI)
